biological target: Muscarinic acetylcholine receptor M3 (Homo sapiens) (UniProt P20309); assay: Partial agonist activity at human M3 receptor in CHO cells assessed as calcium mobilization at 3 uM after 60 mins by FLIPR assay; assay type: functional, cell-based
Sequence (P20309 whole entry, looked up): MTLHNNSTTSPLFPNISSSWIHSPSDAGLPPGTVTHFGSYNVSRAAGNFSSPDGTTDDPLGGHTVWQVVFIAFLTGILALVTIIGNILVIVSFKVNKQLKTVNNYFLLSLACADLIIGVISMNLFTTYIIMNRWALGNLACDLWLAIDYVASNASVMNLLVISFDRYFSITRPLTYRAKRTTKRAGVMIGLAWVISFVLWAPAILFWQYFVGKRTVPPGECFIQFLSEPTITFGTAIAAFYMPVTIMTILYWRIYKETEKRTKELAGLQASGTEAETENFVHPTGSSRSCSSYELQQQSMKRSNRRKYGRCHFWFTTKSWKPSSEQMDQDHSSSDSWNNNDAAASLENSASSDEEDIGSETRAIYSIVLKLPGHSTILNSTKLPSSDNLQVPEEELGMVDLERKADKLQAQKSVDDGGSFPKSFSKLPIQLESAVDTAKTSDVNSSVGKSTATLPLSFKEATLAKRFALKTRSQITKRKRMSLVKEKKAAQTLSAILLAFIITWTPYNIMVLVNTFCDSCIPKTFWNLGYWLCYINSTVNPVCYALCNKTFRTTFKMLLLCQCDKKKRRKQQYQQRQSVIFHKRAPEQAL
Listed compounds paired with reported Activity

>  <molecule>
CCOC(=O)N1CCC(O)(CN2CC[C@H](N3C(=O)Cc4ccccc43)C2)CC1

>  <measure.unit>
%

>  <Activity>
31

$$$$
>  <molecule>
CCOC(=O)N1[C@@H]2CC[C@H]1C[C@H](CN1CC[C@H](N3C(=O)Cc4ccccc43)C1)C2

>  <measure.unit>
%

>  <Activity>
7

$$$$
>  <molecule>
CCOC(=O)N1CCC(CN2CC[C@H](N3C(=O)Cc4ccccc43)C2)CC1

>  <measure.unit>
%

>  <Activity>
7

$$$$
>  <molecule>
CCOC(=O)N1CCC(C)(CN2CC[C@H](N3C(=O)Cc4ccccc43)C2)CC1

>  <measure.unit>
%

>  <Activity>
2

$$$$

###

biological target: UniProt:P08173; experiment: Partial agonist activity at human M4 receptor co-expressed with Galpha16 in CHO cells assessed as calcium mobilization after 60 mins by FLIPR assay
pEC50: −log10 of the molar value.

>  <molecule>
CCOC(=O)N1[C@@H]2CC[C@H]1C[C@H](CN1CC[C@H](N3C(=O)Cc4ccccc43)C1)C2

>  <target>
UniProt:P08173

>  <pEC50>
7.54

$$$$
>  <molecule>
CCOC(=O)N1CCC(C)(CN2CC[C@H](N3C(=O)Cc4ccccc43)C2)CC1

>  <target>
UniProt:P08173

>  <pEC50>
7.82

$$$$
>  <molecule>
CCOC(=O)N1CCC(O)(CN2CC[C@H](N3C(=O)Cc4ccccc43)C2)CC1

>  <target>
UniProt:P08173

>  <pEC50>
6.49

$$$$
>  <molecule>
CO/N=C(\C#N)[C@H]1CN2CCC1CC2

>  <target>
UniProt:P08173

>  <pEC50>
8.24

$$$$

###

Biological target: UniProt P08172
Sequence (whole entry): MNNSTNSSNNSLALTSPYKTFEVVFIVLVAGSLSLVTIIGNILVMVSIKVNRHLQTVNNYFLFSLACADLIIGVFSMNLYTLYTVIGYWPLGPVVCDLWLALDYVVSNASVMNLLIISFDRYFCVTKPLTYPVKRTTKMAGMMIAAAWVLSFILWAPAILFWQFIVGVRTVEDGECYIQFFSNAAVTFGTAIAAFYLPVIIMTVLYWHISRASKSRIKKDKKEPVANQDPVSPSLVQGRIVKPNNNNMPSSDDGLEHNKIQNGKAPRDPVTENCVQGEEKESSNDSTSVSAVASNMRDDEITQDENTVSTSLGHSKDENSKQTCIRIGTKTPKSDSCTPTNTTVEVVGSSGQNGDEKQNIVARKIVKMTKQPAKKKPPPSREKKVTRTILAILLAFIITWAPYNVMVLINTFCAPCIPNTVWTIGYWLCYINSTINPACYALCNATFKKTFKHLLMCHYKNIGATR
Assay: Agonist activity at M2 receptor (unknown origin) at 3 uM by calcium mobilization assay
Assay type: functional
Given measured Activity, output criterion met if it is greater than or equal to 30% and criterion not met if not.

>  <compound>
CCCCCCOc1nsnc1C1=CCCN(C)C1.O=C(O)C(O)C(O)C(=O)O [XANOMELINE TARTRATE]

>  <label.class>
criterion met

$$$$
>  <compound>
CCOC(=O)N1CCC(CN2CC(N3C(=O)Cc4ccccc43)C2)CC1

>  <label.class>
criterion not met

$$$$
>  <compound>
CCOC(=O)N1CCC(CN2CCC(N3C(=O)Cc4ccccc43)CC2)CC1

>  <label.class>
criterion not met

$$$$
>  <compound>
CCOC(=O)N1CCC(CN2CC[C@@H](N3C(=O)Cc4ccccc43)C2)CC1

>  <label.class>
criterion not met

$$$$
>  <compound>
CCOC(=O)N1CCC(CN2CCCC(N3C(=O)Cc4ccccc43)CC2)CC1 (stereo unspecified)

>  <label.class>
criterion not met

$$$$

###

target: Muscarinic acetylcholine receptor M1 (Homo sapiens); experiment: Partial agonist activity at human M1 receptor in CHO cells assessed as calcium mobilization at 3 uM after 60 mins by FLIPR assay; format: functional, cell-based

>  <molecule>
CCOC(=O)N1CCC(CN2CC[C@H](N3C(=O)Cc4ccccc43)C2)CC1

>  <Activity / %>
83

$$$$
>  <molecule>
CCOC(=O)N1[C@@H]2CC[C@H]1C[C@H](CN1CC[C@H](N3C(=O)Cc4ccccc43)C1)C2

>  <Activity / %>
63

$$$$
>  <molecule>
CCOC(=O)N1CCC(O)(CN2CC[C@H](N3C(=O)Cc4ccccc43)C2)CC1

>  <Activity / %>
57

$$$$
>  <molecule>
CCOC(=O)N1CCC(C)(CN2CC[C@H](N3C(=O)Cc4ccccc43)C2)CC1

>  <Activity / %>
49

$$$$

###

Target: Muscarinic acetylcholine receptor M5 (Homo sapiens) (UniProt P08912)
Sequence (whole entry): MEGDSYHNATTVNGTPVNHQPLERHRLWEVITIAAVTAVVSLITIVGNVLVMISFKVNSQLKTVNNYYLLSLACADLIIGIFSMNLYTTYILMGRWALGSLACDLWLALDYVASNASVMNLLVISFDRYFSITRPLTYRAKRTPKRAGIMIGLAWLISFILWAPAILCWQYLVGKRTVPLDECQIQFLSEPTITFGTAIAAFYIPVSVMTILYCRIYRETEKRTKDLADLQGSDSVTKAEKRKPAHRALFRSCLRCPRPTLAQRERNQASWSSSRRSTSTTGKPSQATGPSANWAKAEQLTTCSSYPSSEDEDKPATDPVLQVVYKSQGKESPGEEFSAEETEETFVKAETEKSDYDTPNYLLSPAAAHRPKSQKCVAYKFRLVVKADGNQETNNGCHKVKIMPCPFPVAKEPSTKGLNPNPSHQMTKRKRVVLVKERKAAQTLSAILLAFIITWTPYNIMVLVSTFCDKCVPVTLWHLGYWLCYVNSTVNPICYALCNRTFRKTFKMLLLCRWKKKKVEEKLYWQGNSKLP
Experiment: Agonist activity at M5 receptor (unknown origin) at 3 uM by calcium mobilization assay
Type: functional
reported.property: Activity (%)

>  <compound>
CCOC(=O)N1CCC(CN2CC[C@H](N3C(=O)Cc4ccccc43)C2)CC1

>  <result.number>
5

$$$$
>  <compound>
CCOC(=O)N1CCC(CN2CC[C@@H](N3C(=O)Cc4ccccc43)C2)CC1

>  <result.number>
4

$$$$
>  <compound>
CCOC(=O)N1CCC(CN2CCCC(N3C(=O)Cc4ccccc43)CC2)CC1 (stereo unspecified)

>  <result.number>
3

$$$$
>  <compound>
CCOC(=O)N1CCC(CN2CC(N3C(=O)Cc4ccccc43)C2)CC1

>  <result.number>
3

$$$$
>  <compound>
CCOC(=O)N1CCC(CN2CCC(N3C(=O)Cc4ccccc43)CC2)CC1

>  <result.number>
6

$$$$
>  <compound>
CCCCCCOc1nsnc1C1=CCCN(C)C1.O=C(O)C(O)C(O)C(=O)O [XANOMELINE TARTRATE]

>  <result.number>
33

$$$$

###

molecular target: Muscarinic acetylcholine receptor M1 (Homo sapiens) (UniProt P11229); assay: Agonist activity at M1 receptor (unknown origin) at 3 uM by calcium mobilization assay; assay type: functional
Sequence (P11229 whole entry): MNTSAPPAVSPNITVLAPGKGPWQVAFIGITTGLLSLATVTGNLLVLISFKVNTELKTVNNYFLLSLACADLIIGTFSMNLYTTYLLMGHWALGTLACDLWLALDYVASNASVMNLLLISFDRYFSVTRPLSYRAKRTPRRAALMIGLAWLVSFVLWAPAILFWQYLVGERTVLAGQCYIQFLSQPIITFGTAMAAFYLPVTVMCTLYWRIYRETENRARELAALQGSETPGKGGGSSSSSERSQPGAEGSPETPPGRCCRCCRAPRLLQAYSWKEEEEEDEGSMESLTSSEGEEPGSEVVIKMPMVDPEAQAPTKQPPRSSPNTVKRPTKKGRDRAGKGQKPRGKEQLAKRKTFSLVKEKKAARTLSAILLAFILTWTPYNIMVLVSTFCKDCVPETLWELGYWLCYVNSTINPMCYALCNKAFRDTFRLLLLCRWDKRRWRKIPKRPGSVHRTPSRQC

>  <compound>
CCOC(=O)N1CCC(CN2CCC(N3C(=O)Cc4ccccc43)CC2)CC1

>  <target>
Muscarinic acetylcholine receptor M1 (Homo sapiens) (UniProt P11229)

>  <Activity (%)>
88

$$$$
>  <compound>
CCOC(=O)N1CCC(CN2CC[C@H](N3C(=O)Cc4ccccc43)C2)CC1

>  <target>
Muscarinic acetylcholine receptor M1 (Homo sapiens) (UniProt P11229)

>  <Activity (%)>
83

$$$$
>  <compound>
CCOC(=O)N1CCC(CN2CCCC(N3C(=O)Cc4ccccc43)CC2)CC1 (stereo unspecified)

>  <target>
Muscarinic acetylcholine receptor M1 (Homo sapiens) (UniProt P11229)

>  <Activity (%)>
7

$$$$
>  <compound>
CCCCCCOc1nsnc1C1=CCCN(C)C1.O=C(O)C(O)C(O)C(=O)O [XANOMELINE TARTRATE]

>  <target>
Muscarinic acetylcholine receptor M1 (Homo sapiens) (UniProt P11229)

>  <Activity (%)>
145

$$$$
>  <compound>
CCOC(=O)N1CCC(CN2CC(N3C(=O)Cc4ccccc43)C2)CC1

>  <target>
Muscarinic acetylcholine receptor M1 (Homo sapiens) (UniProt P11229)

>  <Activity (%)>
65

$$$$
>  <compound>
CCOC(=O)N1CCC(CN2CC[C@@H](N3C(=O)Cc4ccccc43)C2)CC1

>  <target>
Muscarinic acetylcholine receptor M1 (Homo sapiens) (UniProt P11229)

>  <Activity (%)>
88

$$$$

###

Listed compounds paired with reported Intrinsic activity
molecular target: Muscarinic acetylcholine receptor M4 (Homo sapiens); test: Partial agonist activity at human M4 receptor co-expressed with Galpha16 in CHO cells assessed as calcium mobilization after 60 mins by FLIPR assay; type: functional, cell-based
Sequence (P08173 whole entry): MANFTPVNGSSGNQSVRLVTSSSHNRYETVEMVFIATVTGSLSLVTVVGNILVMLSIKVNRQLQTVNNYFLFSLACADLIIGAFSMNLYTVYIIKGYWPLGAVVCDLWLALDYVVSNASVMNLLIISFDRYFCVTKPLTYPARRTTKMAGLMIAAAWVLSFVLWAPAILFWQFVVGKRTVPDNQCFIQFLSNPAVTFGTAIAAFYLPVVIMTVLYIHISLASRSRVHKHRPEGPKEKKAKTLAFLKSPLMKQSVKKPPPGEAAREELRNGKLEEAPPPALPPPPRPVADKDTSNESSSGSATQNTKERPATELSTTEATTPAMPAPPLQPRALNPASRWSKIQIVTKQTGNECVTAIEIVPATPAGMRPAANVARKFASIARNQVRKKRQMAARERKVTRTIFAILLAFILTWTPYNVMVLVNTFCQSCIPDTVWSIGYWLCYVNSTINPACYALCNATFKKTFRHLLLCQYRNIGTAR

>  <molecule>
CCOC(=O)N1CCC(C)(CN2CC[C@H](N3C(=O)Cc4ccccc43)C2)CC1

>  <target>
Muscarinic acetylcholine receptor M4 (Homo sapiens)

>  <Intrinsic activity [%]>
65

$$$$
>  <molecule>
CCOC(=O)N1CCC(O)(CN2CC[C@H](N3C(=O)Cc4ccccc43)C2)CC1

>  <target>
Muscarinic acetylcholine receptor M4 (Homo sapiens)

>  <Intrinsic activity [%]>
45

$$$$
>  <molecule>
CCOC(=O)N1[C@@H]2CC[C@H]1C[C@H](CN1CC[C@H](N3C(=O)Cc4ccccc43)C1)C2

>  <target>
Muscarinic acetylcholine receptor M4 (Homo sapiens)

>  <Intrinsic activity [%]>
42

$$$$
>  <molecule>
CO/N=C(\C#N)[C@H]1CN2CCC1CC2

>  <target>
Muscarinic acetylcholine receptor M4 (Homo sapiens)

>  <Intrinsic activity [%]>
28

$$$$
